# System: Saccharomyces cerevisiae
# testDescription: transcriptional activation domain activity (GFP:mCherry ratio, weighted mean of sorted bins, harmonized to initial dataset scale) (arbitrary fluorescence ratio units); higher = stronger transcriptional activation
# reportedConditions: beta-estradiol 1 µM; induction time 4 h
endpointName: transcriptional activation domain activity
Answer field: number only, no words.

TPTAQYQQGYHFRHLRYVMCLSVAVLIVGAVSLTIPLPISARIASILRFWEHD    44200
VLLCQMEDAVLSSSFAIKANTAMSQNTAEEFFNISEEEALNQLLENNNFDAFW    140000
GDKTEGAEGEDGAQRRQSTRGRGRSGRGRGGRGRGGRADENKDEENHEDAGES    22500
MWSFFFFLFFFGFCFLVFWPNLFFLFFFHDSCPFVLLLFLFHLFHLPVFPRSG    40300
APVAEPVPVASTSSEVKKDEEEADEDEEDDNVASIEAKIAAARSRLSATHCLF    10900
GDGTPTLSWRHDLGGGEVRDLEVTVVKVHSGEVTLLSSATLKLVLVFHLSSTI    43400

Request: Param readout = transcriptional activation domain activity; param system = Saccharomyces cerevisiae; param query = MLIVSRAGFLAFLLCYLHFCSVVVHVFSLPIGQPVTGYGNGNSVNPRSPIVPS ; response: value
Result: 52100

Request: Param readout = transcriptional activation domain activity; param system = Saccharomyces cerevisiae; param query = VILLPLSFSLWYCLLFAYGILVSLYLLTLKNPTEINFLGFYIWKYENAFWVLM ; response: value
Result: 60100

Request: Param readout = transcriptional activation domain activity; param system = Saccharomyces cerevisiae; param query = IELRARVFNYSNMHALKRCTFRLNRFETAFNFKLLWLFFVYYTRGIEVNRRNL ; response: value
Result: 58600

// provenance: the supplement of paper PMC12636428
